Measured inhibition at 10 µM values are reported for all entries that follow.
# tgt: BTK (Homo sapiens)
# Sequence (Q06187 402-655 limits assumed): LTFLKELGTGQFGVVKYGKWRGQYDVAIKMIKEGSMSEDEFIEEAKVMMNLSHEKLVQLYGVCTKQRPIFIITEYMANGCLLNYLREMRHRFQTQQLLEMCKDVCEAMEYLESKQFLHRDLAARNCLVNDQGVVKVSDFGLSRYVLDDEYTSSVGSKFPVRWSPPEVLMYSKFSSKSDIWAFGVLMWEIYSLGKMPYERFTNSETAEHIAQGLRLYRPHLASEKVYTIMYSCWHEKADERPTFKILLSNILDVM
# method-description: biochemical
# run-conditions: read-out: BTK inhibition (%), 0.75 uM BTK, […] probe 3l, 15 min preincubation
Just the number please, in %, no unit attached.

| compound | unit-of-measure | quantitative-readout |
| --- | --- | --- |
| O=c1cc(O)c(Cl)c[nH]1 | % | -3.9 |
| O=C(O)C1(Cc2cccc(Nc3nccs3)n2)CCC(Oc2cccc(Cl)c2F)CC1 (stereo not shown) | % | 102 |
| CCC(=O)N1CCN(c2ccc(-n3c(=O)ccc4cnc5ccc(-c6cnc7ccccc7c6)cc5c43)cc2C(F)(F)F)CC1 | % | -25.5 |
| O=C(c1cccc(Br)c1)N1CCC(N2CCCC2)CC1 | % | -17.8 |
| O=C(O)CCn1c2c(c3ccccc31)C[C@H](NS(=O)(=O)c1ccc(F)cc1)CC2 | % | -15.4 |

# returns recorded inhibition at 10 µM (system: BTK (Homo sapiens)) for CC(C)(O)[C@@H]1CC[C@](C)([C@H]2[C@@H](O)C[C@@]3(C)[C@@H]4C[C@H](O[C@@H]5O[C@H](CO)[C@@H](O)[C@H](O)[C@H]5O)[C@H]5C(C)(C)[C@@H](O[C@@H]6OC[C@@H](O)[C@H](O)[C@H]6O)CC[C@@]56C[C@@]46CC[C@]23C)O1
12.5

BTK (Homo sapiens) / inhibition at 10 µM / CC1(C)C[C@@H]1C(=O)N/C(=C\CCCCSC[C@H](N)C(=O)O)C(=O)O : value?
-10

###

# tgt: UniProtKB Q06187
# method-description: biochemical
# run-conditions: read-out: BTK inhibition (%), 0.75 uM BTK, […] probe 3l, 15 min preincubation
experimental-endpoint: inhibition at 10 µM (%)
Give just the numeric value; % need not be written.

Reported inhibition at 10 µM for UniProtKB Q06187, given N#CNC(=NCCCCCCOc1ccc(Cl)cc1)Nc1ccncc1 ?
18.5

Param readout = inhibition at 10 µM; param system = UniProtKB Q06187; param query = N#Cc1ccc(-c2csc(NN=C3CCCC3)n2)cc1 ; response: value
43.2

API: value(readout= inhibition at 10 µM, system= UniProtKB Q06187, query= CCN(c1cc(-c2ccc(CN3CCOCC3)cc2)cc(C(=O)NCc2c(C)cc(C)[nH]c2=O)c1C)C1CCOCC1 )
-2.6

Test system UniProtKB Q06187; read-out inhibition at 10 µM; what value for COc1ccc(-c2oc3c(CC=C(C)C)c(O[C@@H]4C[C@H](CO)[C@@H](O)[C@H](O)[C@H]4O)cc(O)c3c(=O)c2O[C@@H]2O[C@@H](C)[C@H](O)[C@@H](O)[C@H]2O[C@@H]2O[C@H](CO)[C@@H](O)[C@H](O)[C@H]2O)cc1 ?
-15.4

Query inhibition at 10 µM on UniProtKB Q06187 for CC1=C(/C=C/C(C)=C/C=C/C(C)=C/C=C/C=C(C)/C=C/C=C(C)/C=C/C2=C(C)C(=O)[C@@H](O)CC2(C)C)C(C)(C)C[C@H](O)C1=O
16.6

Which inhibition at 10 µM is reported with UniProtKB Q06187 for this entry: CN(C)CCC=C1c2ccccc2C(C)(C)c2ccccc21 ?
-10.8

Please provide the recorded inhibition at 10 µM for CNC(=O)c1cccc(-c2ccc3c(N4CCOC[C@@H]4C)nc(N4CCOC[C@@H]4C)nc3n2)c1 , tested on UniProtKB Q06187.
-2.8
